# Target or test system: Apelin receptor (Homo sapiens) (UniProt P35414)
# Sequence (P35414 whole entry, looked up): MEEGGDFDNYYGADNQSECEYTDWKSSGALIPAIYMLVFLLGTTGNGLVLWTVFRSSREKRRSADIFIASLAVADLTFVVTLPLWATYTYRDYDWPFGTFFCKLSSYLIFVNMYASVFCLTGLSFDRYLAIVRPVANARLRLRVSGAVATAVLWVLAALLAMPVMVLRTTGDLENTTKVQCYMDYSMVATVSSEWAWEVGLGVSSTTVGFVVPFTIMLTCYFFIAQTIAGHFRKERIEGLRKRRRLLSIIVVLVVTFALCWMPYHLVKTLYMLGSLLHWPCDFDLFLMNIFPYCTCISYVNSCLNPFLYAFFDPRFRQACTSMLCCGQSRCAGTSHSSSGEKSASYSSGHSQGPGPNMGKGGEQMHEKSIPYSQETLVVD
# Assay procedure: apelin receptor inhibitor analogs – cell-based, luminescence, set 2, SAR follow-up (AID 488803)
# Protocol conditions: CHO-K1 APJ PathHunter beta-arrestin, antagonist
The source made the active and inactive calls.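 How the source made its calls: active means mean IC50 below 10 µM; inactive means the rest.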
Respond only with the outcome that fits, drawn from t = active, f = inactive

Would you please look over these solved cases?
>  <Compound>
Cc1ccnc(SCc2cc(=O)c(OC(=O)c3cccs3)co2)n1

>  <Target or test system>
Apelin receptor (Homo sapiens) (UniProt P35414)

>  <Group>
f

$$$$
>  <Compound>
Oc1cccc(CSc2ncccn2)c1

>  <Target or test system>
Apelin receptor (Homo sapiens) (UniProt P35414)

>  <Group>
f

$$$$
>  <Compound>
Cc1cc(C)nc(SCc2cc(=O)c(O)co2)n1

>  <Target or test system>
Apelin receptor (Homo sapiens) (UniProt P35414)

>  <Group>
f

$$$$
>  <Compound>
C=CCOc1cccc(CSc2nccc(C)n2)c1

>  <Target or test system>
Apelin receptor (Homo sapiens) (UniProt P35414)

>  <Group>
f

$$$$
>  <Compound>
Cc1cccc(C2CC3(CC(C)(C)NC(=S)N3)Oc3cc(O)cc(C)c32)c1 (stereo not given)

>  <Target or test system>
Apelin receptor (Homo sapiens) (UniProt P35414)

>  <Group>
f

$$$$
>  <Compound>
COc1ccc(C(=O)Oc2coc(CSc3ncccn3)cc2=O)cc1

>  <Target or test system>
Apelin receptor (Homo sapiens) (UniProt P35414)

>  <Group>
f

$$$$
>  <Compound>
Cc1ccccc1NCC(O)c1ccc(Cl)cc1 (stereo not given)

>  <Target or test system>
Apelin receptor (Homo sapiens) (UniProt P35414)

>  <Group>
f

$$$$
>  <Compound>
CC1(C)CC2(CC(c3ccc(Cl)cc3)c3ccc(O)cc3O2)NC(=S)N1 (stereo not given)

>  <Target or test system>
Apelin receptor (Homo sapiens) (UniProt P35414)

>  <Group>
f

$$$$

Input: // return assay outcome for COc1ccccc1NCC(O)c1ccc(Cl)cc1 (stereo not given)
Output: f

Input: // same read-out, input: CC(=O)Oc1cc2c(cc1Cl)C(c1ccccc1Cl)CC1(CC(C)(C)NC(=S)N1)O2 (stereo not given)
Output: f

Input: Further, for `O=C(Oc1coc(CSc2ncccn2)cc1=O)c1ccc(C(F)(F)F)cc1` ?
Output: f

Input: Repeat for the following compound: COc1ccc(C2CC3(CC(C)(C)NC(=S)N3)Oc3cc(O)cc(C)c32)cc1 (stereo not given)
Output: f

Input: Ok, now CC1(C)CC2(CC(c3ccccc3Cl)c3cc(Cl)c(OC(=O)C4CC4)cc3O2)NC(=S)N1 (stereo not given)
Output: f

Input: Lookup Cc1cccc(C2CC3(CC(C)(C)NC(=O)N3)Oc3cc(O)c(Cl)cc32)c1 (stereo not given)
Output: f

Input: Entry `O=C(Oc1coc(CSc2ncccn2)cc1=O)c1ccc(Cl)c([N+](=O)[O-])c1` please
Output: t

Input: Note, next up: `O=C(Oc1coc(CSc2ncccn2)cc1=O)c1ccc(F)cc1`
Output: f

Input: # iterate: `Cc1ccc(C(=O)Oc2coc(CSc3ncccn3)cc2=O)cc1[N+](=O)[O-]`
Output: t

Input: Same question, `Cc1ccnc(SCc2cc(=O)c(OC(=O)c3cc([N+](=O)[O-])ccc3Cl)co2)n1` this time
Output: f

Input: Try `COc1cc(C(=O)Oc2coc(CSc3ncccn3)cc2=O)c([N+](=O)[O-])cc1OC` next.
Output: f

Input: Query C=CCSC1=NC2(CC(c3ccc(C)cc3)c3c(C)cc(OC(C)=O)cc3O2)CC(C)(C)N1 (stereo not given) next
Output: f
